system: 786-0; experiment: NCI tumour cell line growth inhibition, 48 h
Calls of active or inactive are those of the source. No stated cut-off is given here; in the data, active = GI50 up to about 1.1 µM and inactive = higher.
property.measured: GI50

For record CN(/N=C/c1cccc2cccnc12)c1c([N+](=O)[O-])cc([N+](=O)[O-])cc1[N+](=O)[O-] the listed GI50 is > 100 µM (inactive)

// recorded GI50 for C(=C\c1ccc2ccccc2c1Nc1ccccc1)/c1ccccc1 : 17 µM (inactive)

Input CCOP1(=O)C=C(C)C(Cl)=C(C)C1 (stereo not drawn) . Output GI50: 28.3 µM (inactive)

* * *

tested on: OVCAR-4; assay: NCI tumour cell line growth inhibition, 48 h
Calls of active or inactive are those of the source. No stated cut-off is given here; in the data, active = GI50 up to about 1.1 µM and inactive = higher.
property.measured: GI50

For COC(=O)c1cc2c(nc1C)-c1ccccc1OS2(=O)=O the molecule record lists GI50 as > 100 µM (inactive)

Briefly, GI50 measured for CN(C)Cc1cc(/N=N/c2cccc(Cl)c2)ccc1O : 9.86 µM (inactive)

Noted for CCc1cccc(C)c1NC(=O)NS(=O)(=O)c1ccc(C)cc1 : its GI50 reads > 100 µM (inactive)

Lab book: GI50 of C=CC(OC(C)=O)c1ccc(OC(=O)C(C)C)c(OC)c1 (centres undefined) noted as 4.9 µM (inactive)

* * *

test system: RPMI-8226; experiment: NCI tumour cell line growth inhibition, 48 h
Calls of active or inactive are those of the source. Rule as the data show it: active = GI50 up to about 1.1 µM and inactive = higher.
Assign GI50 to each entry below.

Sure, the documented GI50 for Cc1cc(C(=C2C=CC(=[N+](C)C)C=C2)c2ccc([N+](C)(C)C)cc2)ccc1N(C)C is 2.04 µM (inactive)

Recorded result, COC(=O)[C@]1(c2cc3ccccc3[nH]2)CC2CN(C(=O)OCc3ccccc3)C1CC2=O (stereo partly drawn) , GI50: 17.5 µM (inactive)

The compound COC(=O)c1ccc(CCC2=CC(=O)C=CC2=O)cc1 showed GI50 equal to 1.8 µM (inactive)

In plain terms, CC(=O)Oc1ccc2c(c1)Oc1cc(C(C)=O)ccc1C21OC(=O)c2ccccc21 (stereo not drawn) has a documented GI50 of 30.2 µM (inactive)

Record summary for Cc1ccc(S(=O)(=O)n2cc(C=O)c(-c3cn(S(=O)(=O)c4ccc(C)cc4)cc3-c3cn(S(=O)(=O)c4ccc(C)cc4)cc3C=O)c2)cc1 : reported GI50 = 8.36 µM (inactive)

Looking up CC(=O)Nc1ccc(NNc2cc(=O)n(C)c(=O)[nH]2)cc1 , I found its GI50 recorded as 2.84 µM (inactive)

GET /value?item= COc1cc(C=O)cc(/C=N/n2c3ccccc3c3ccccc32)c1O &field=GI50 returns 5.01 µM (inactive)

Query O=C(O)COc1ccc(C(=O)/C(SS/C(C(=O)c2ccc(OCC(=O)O)c(Cl)c2Cl)=C2\C=C(c3ccc(Cl)cc3)SS2)=C2/C=C(c3ccc(Cl)cc3)SS2)c(Cl)c1Cl yields GI50 of 22.3 µM (inactive)

* * *

tested on: SN12C; experiment: NCI tumour cell line growth inhibition, 48 h
Calls of active or inactive are those of the source. No stated cut-off is given here; in the data, active = GI50 up to about 1.1 µM and inactive = higher.
Provide the recorded GI50 for the entries that follow.

Sure, the documented GI50 for CC1(C)O[C@H]2[C@H](O)C[C@](O)(CO)C[C@H]2O1 is > 100 µM (inactive)

For record CCN1c2ccccc2-n2c(C)nnc2-c2c(-c3ccccc3)n[nH]c21 the listed GI50 is 24.4 µM (inactive)

The reported value for COc1ccc(CSCc2cc(OC)c(OC)c(OC)c2)cc1 in terms of GI50 is > 86.1 µM (inactive)

// COC1C(CO)OC(n2c3c(Cl)cccc3c3c4c(c5c6cccc(Cl)c6[nH]c5c32)C(=O)NC4=O)C(O)C1O (stereo unspecified) : GI50 value = 0.104 µM (active)

# compound COc1cc2cc(C(=O)N3CC(COS(C)(=O)=O)c4c3cc([N+](=O)[O-])c3ccccc43)[nH]c2c(OC)c1OC (stereo unspecified) ; its GI50 = 5.83 µM (inactive)

Lab book: GI50 of Cc1cc(Cc2cc(C)c(NC(=O)C(=O)C3CCC4=C(SC5C=CC=CC5N4)C3=O)c(C(C)C)c2)cc(C(C)C)c1NC(=O)C(=O)C1CCC2=C(SC3C=CC=CC3N2)C1=O (stereo unspecified) noted as 84.1 µM (inactive)

Value of GI50 reported for the compound Cc1cc(C)nc(NS(=O)(=O)c2ccc(NC(=O)c3cccc4c(N)c5ccccc5nc34)cc2)n1 is > 100 µM (inactive)

For reference, reported GI50 for Cc1c(C)c2c(c(N)c1C#N)C(=O)N(NC(=O)c1ccccc1)C2=O stands at > 100 µM (inactive)

The compound O=c1oc2ccccc2c(Nc2ccc3c(c2)Oc2ccccc2O3)c1[N+](=O)[O-] showed GI50 equal to 35.8 µM (inactive)

Just so you know, measured GI50 for CCOC(=O)C(=O)Nc1ccc(C)c(C)c1 came out at > 100 µM (inactive)

GI50 for O=C1C=CC(=O)C2C1Cc1ccccc1C2c1ccccc1 (stereo unspecified) is 39.7 µM (inactive)

Reported GI50 ( CN(C)CCNc1nc2ccccc2c2c1CCCC2 ) = 22.9 µM (inactive)

// recorded GI50 for CC(=O)O[C@H]1CSC[C@@H](OC(C)=O)C1[N+](=O)[O-] (stereo partly specified) : > 100 µM (inactive)

Documented GI50 of O=S(=O)(O)c1cccc2cccc(/N=N/c3c(O)ccc4ccccc34)c12 : > 100 µM (inactive)

Input c1ccncc1 . Output GI50: > 100 µM (inactive)

Notebook: CCOC(=O)N1C(=S)C(C(=O)OC)(C(=O)OC)N=C1C , GI50 read as > 100 µM (inactive)

* * *

test system: SF-295; assay: NCI tumour cell line growth inhibition, 48 h
The source made the active and inactive calls. Rule as the data show it: active = GI50 up to about 1.1 µM and inactive = higher.
Record form. Attribute: GI50. Fill in for each entry.

Short answer for CCCCSC1=N/C(=C\c2ccc(N(C)C)cc2)C(Cl)=N1 : GI50 was > 100 µM (inactive)

Briefly, GI50 measured for Nc1nncs1 : 2760 µM (inactive)

For reference, reported GI50 for CC1=Nc2c(N)nc(N)nc2N(C)C1 stands at > 100 µM (inactive)

* * *

test system: UACC-62; assay: NCI tumour cell line growth inhibition, 48 h
Active and inactive are the calls of the source. Rule as the data show it: active = GI50 up to about 1.1 µM and inactive = higher.
Parameter call: string, one of y = active, n = inactive

Record request — test call for CC1C2CC=CC(=O)[C@@]2(C)CCC12OCCO2 (some centres undefined)
n

// param item: CCOC(=O)NC(Nc1ncccn1)(C(F)(F)F)C(F)(F)F ; yields the recorded call
n

Fill in: this test's call for COC1(OC)CCCCCCCCC(OC)(OC)CCCCCCCC1 is ___
n

Could you check what this test reported for CCOC(=O)C1=C(C)N(c2ccccc2)C2=C(C(=O)N(c3ccccc3)C2c2ccccc2)C1c1ccccc1 (centres undefined) ?
n

// return assay outcome for Cc1cc(N(CCOS(C)(=O)=O)CCOS(C)(=O)=O)ccc1/C=N/c1ccc(-c2csc(-c3ccc(Br)cc3)n2)cc1
n

For C/C(=N/NC(=S)NCCc1ccccn1)c1cnccn1 , which call appears in the assay record?
n

Please let me know the test result on file for CC(=O)O[C@H]1CSC[C@@H](OC(C)=O)C1[N+](=O)[O-] (some centres undefined) .
n

Could you check what this test reported for CC(C)(C)c1cc(/C=C(\C#N)C2=NCCO2)cc(C(C)(C)C)c1O ?
n

Hi, sorry to bother you, what did the test record for C/C(Nc1ccc(Cl)cc1)=C1/CCOC1=O ?
y

What outcome does the record of this test show for O=[N+]([O-])c1ccc(NN=C2CN3CCN(C2)c2ccccc23)c([N+](=O)[O-])c1 ?
n

So what was the verdict on CN(C)c1ccc(Cc2cc(C(C)(C)C)cc(C(C)(C)C)c2O)cc1 in this test?
n

// outcome(item) with item = CCC1C(C#N)=C(O)NC(O)=C1C#N
n

Hey, what did the test say about COc1cc(C2SC(C)C(=O)N2c2ccc(-c3csc(NS(=O)(=O)c4ccc(Cl)c(OC)c4)n3)cc2)ccc1O (centres undefined) ?
n

For C=CCSC1=N/C(=C\c2ccc(Cl)cc2)C(=O)N1CC=C , which call appears in the assay record?
n

Write down the call the test reported for this compound. Item: N=C1OC(c2cccc(Cl)c2)C(NNS(=O)(=O)c2ccccc2)=C1O (centres undefined)
n

// outcome(item) with item = C[C@]12[C@@H]3CC[C@H]1[C@@H](OC(=O)Nc1cc([N+](=O)[O-])cc([N+](=O)[O-])c1)C(=O)N2CC3
n

Given Cc1ccc(Nc2c3c(c(C#N)c4nc5ccccc5n24)CCCC3)cc1 , state the outcome it received in this test.
n

Write down the call the test reported for this compound. Item: C/C(CCn1[nH]c(=O)ccc1=O)=N\Nc1ccc([N+](=O)[O-])cc1[N+](=O)[O-]
n

Write down the call the test reported for this compound. Item: COC(=O)c1ccccc1C1CN=NC12Cc1ccccc1C2=O (centres undefined)
n

Values from ChEMBL document CHEMBL1201862
